// reported %Inh per item
Tested on: MAP3K1
recordedConditions: concentration: 1 μM, replicates: in singlicate; n = 1;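 note: KINOMEscan kinase panel screen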
The reply should contain only the number, in %.

compound	unitsLabel	%Inh
COc1cccc(-n2cnc3c(N)ncnc32)c1 [SKF-97416]	%	29
O=c1cc(N2CCOCC2)nc2n(Cc3ccc(F)c(Cl)c3)ccn12 [GSK2297099]	%	4
CCn1c(-c2ccoc2)nc2cnccc21 [SB-733887]	%	14
CCS(=O)(=O)c1ccc(OC)c(Nc2ncc(-c3ccc(F)cc3)o2)c1.Cl [GW591947]	%	0
CN(C)c1cc(-c2ccc3c(N)n[nH]c3c2)nc(N)n1 [GSK2219329]	%	0
Cc1c(Cn2c(C)nn3c(=O)cc(N4CCO[C@H](C)C4)nc23)cccc1C(F)(F)F [GSK2373690]	%	7

So, COc1cccc(C2=C(Nc3cccc(C(=O)O)c3)C(=O)NC2=O)c1 [SB-390770] ? Its %Inh was 25

Record summary for OCCCNc1nccc(-c2c(-c3cccc(C(F)(F)F)c3)nn3cc(C(F)(F)F)ccc23)n1 [GW630813] : reported %Inh = 0

Given item COc1ccc(-c2cc3c(C)nc(N)nc3n([C@H]3CC[C@H](O)CC3)c2=O)cn1 , the value recorded as its %Inh is 0

---

System: EPHB1
recordedConditions: concentration: 1 μM, replicates: in singlicate; n = 1
I would appreciate it if you labelled entries Satisfied when %Inh is 4% or higher, otherwise Not satisfied.

Threshold query (%Inh >= 4%) on CCCC(=O)Nc1n[nH]c2ncc(-c3cccc4ccccc34)cc12 Satisfied

I'd appreciate it if you could say whether COC(=O)c1c(-c2ccccc2)c2cc(Br)ccc2c(=O)n1Cc1ccc(NC(=O)CCC(=O)O)cc1 has %Inh at least equal to 4%. Satisfied

Quick check, %Inh >= 4%? CCS(=O)(=O)c1ccc(OC)c(Nc2ncc(-c3ccc(F)cc3)o2)c1.Cl Satisfied

---

Test system: CSNK1G3
recordedConditions: concentration: 1 μM, replicates: in singlicate; n = 1
Catalogue of %Inh readings, one per entry.
// note: answer is a bare numeric in %

compound	studySystem	%Inh / %
CCS(=O)c1ccc(-c2coc3ccc(-c4nnc(C)o4)cc23)cc1 (stereo not shown)	CSNK1G3	0

The compound O=C(Nc1n[nH]c2nc(-c3ccccc3)c(Br)cc12)C1CC1 showed %Inh equal to 15

# %Inh of Nc1n[nH]c2ncc(-c3ccccc3)cc12 = 6

In plain terms, CN(C)c1cc(-c2ccc3c(N)n[nH]c3c2)nc(N)n1 has a documented %Inh of 16

---

Test system: ANKK1
recordedConditions: concentration: 1 μM, replicates: in singlicate; n = 1
Entries and their %Inh
Please state the figure in %; there is no need to write the unit.

compound	studySystem	experimentalValue
Cc1nc(N(C)[C@H]2CN(C(=O)CC#N)CC[C@H]2C)c2cc[nH]c2n1	ANKK1	0

// COc1ccc(-c2cc3c(C)nc(N)nc3n([C@H]3CC[C@H](OCCO)CC3)c2=O)cn1 : %Inh value = 0

---

Item-by-item account of %Inh
Tested on: PKMYT1
recordedConditions: concentration: 1 μM, replicates: in singlicate; n = 1
Please provide the amount together with its unit, number first.

molecule	%Inh
Cc1nc(N(C)[C@H]2CN(C(=O)CC#N)CC[C@H]2C)c2cc[nH]c2n1	4%
Cc1cccc(-c2cc(-c3c[nH]nc3-c3ccccn3)ccn2)c1 [GW679395]	1%

// Nc1n[nH]c2ncc(-c3ccccc3)cc12 [SB-517081] : %Inh value = 2%

---

Test system: MARK3
recordedConditions: concentration: 1 μM, replicates: in singlicate; n = 1
Label key: YES means %Inh under 20%; NO means %Inh of 20% or more.

smilesNotation	cat
Nc1nc(-c2ccccc2F)c(-c2ccnc3ccccc23)s1	YES
O=C(NCc1cccs1)c1cc(C(=O)c2c(Cl)cccc2Cl)c[nH]1	NO
COc1cccc(-n2cnc3c(N)ncnc32)c1	NO

Criterion: %Inh strictly below 20%. Is it met by COc1cc2ncn(-c3cc(OCCCc4ccccc4)c(C(N)=O)s3)c2cc1OC ? YES

Determine whether this molecule shows %Inh lower than 20% (ties excluded): CN1C(=O)C(Nc2ccccc2)=C(c2ccccc2)C1=O NO

Criterion: %Inh strictly below 20%. Is it met by COc1cc2ncn(-c3cc(OCc4ccncc4)c(C(N)=O)s3)c2cc1OC ? YES

---

Test system: VRK2
recordedConditions: concentration: 1 μM, replicates: in singlicate; n = 1
assayReadout: %Inh (%)
Hi! Could you send only the number? It should be in %, unit omitted.

Below: 3 compounds and their reported %Inh.
compound	assayReadout	experimentalValue
Cc1nnc(-c2ccc(C)c(-c3ccc(C(=O)O)cc3)c2)o1	%Inh	0
Cc1cccc(-c2nc(Nc3ccc4c(cnn4C)c3)c3ccccc3n2)n1	%Inh	15
Cc1nn2c(=O)cc(N3CCOCC3)nc2n1Cc1cccc(Cl)c1Cl	%Inh	0

Measured %Inh of CCS(=O)c1ccc(-c2coc3ccc(-c4nnc(C)o4)cc23)cc1 (stereo not drawn) : 2

Sample COc1cccc(C2=C(N(C)c3ccccc3)C(=O)NC2=O)c1 ; %Inh observed: 10

In plain terms, O=C(Nc1n[nH]c2cc(-c3ccccc3F)ccc12)C1CC1 has a documented %Inh of 0

For record Nc1ncnc2c1ncn2-c1ccc(Cl)cc1 the listed %Inh is 15

Measured %Inh, Cc1nc(N(C)[C@H]2CN(C(=O)CC#N)CC[C@H]2C)c2cc[nH]c2n1 : 0

Reported %Inh ( Fc1cccc(CSc2nnc(-c3ccc4c(c3)CCO4)o2)c1 ) = 5

---

Test system: PIK3CB
recordedConditions: concentration: 1 μM, replicates: in singlicate; n = 1
assayReadout: %Inh (%)
The reply should be a number in %, with the unit left off.

// worked examples, %Inh included
compound	unitsLabel	%Inh
CCCC(=O)Nc1n[nH]c2ncc(-c3cccc4ccccc34)cc12 [SB-642057]	%	0
COc1cc(Nc2nccc(N3CCC(NC(=O)C(C)c4ccc(Cl)cc4)C3)n2)cc(OC)c1OC (stereo not shown) [GSK1379757]	%	0
COC(=O)c1c(-c2ccccc2)c2cc(C)ccc2c(=O)n1Cc1ccccc1	%	0
CCC(=O)c1c(-c2ccccc2)c2cc(Cl)ccc2c(=O)n1Cc1cc(C(=O)NC2CC2)n(C)n1	%	21
COc1cc2ncn(-c3cc(OCc4ccncc4Br)c(C(N)=O)s3)c2cc1OC [GW854278]	%	0
CCC(=O)c1c(-c2ccccc2)c2cc(Cl)ccc2c(=O)n1Cc1ccc(C(=O)O)cc1	%	3
COc1cc(Nc2ccnc3ccc(C(F)(F)F)cc23)cc(OC)c1OC [GW577382]	%	0
COc1cc2ncn(-c3cc(OCCCc4ccccc4)c(C(N)=O)s3)c2cc1OC [GSK205189]	%	0

Please fill in: %Inh reported for O=C(Nc1n[nH]c2nc(-c3ccccc3)c(Cl)cc12)C1CC1 [SB-734909] = 13

Data point: COc1cc(OC)cc(-c2cc3cnc(N)nc3nc2NC(=O)NC(C)(C)C)c1 ; %Inh = 32

In plain terms, FC(F)(F)c1ccc(-c2ncn(CCCN3CCOCC3)c2-c2ccncc2)cc1 [SB-217780] has a documented %Inh of 4

The value of %Inh measured for the compound O=C(Nc1n[nH]c2nc(-c3ccccc3)c(Br)cc12)C1CC1 [SB-708998] turned out to be 0

Field %Inh (entry Cc1nnc(-c2ccc(C)c(-c3ccc(C(=O)O)cc3)c2)o1 [GW608005] ) reads 0

---

Tested on: LATS2
recordedConditions: concentration: 1 μM, replicates: in singlicate; n = 1
Below, each entry is listed alongside its reported %Inh.
The reply should be a number in %, with the unit left off.

molecule	assayReadout	unitsLabel	experimentalValue
Cc1ccccc1COc1cc(-n2cnc3cc(Cl)ccc32)sc1C(N)=O [GW813349]	%Inh	%	61
COc1cc2ncn(-c3cc(OCc4ccncc4Br)c(C(N)=O)s3)c2cc1OC [GW854278]	%Inh	%	0
COc1cc2ncn(-c3cc(OCc4ccc(S(C)(=O)=O)cc4)c(C(N)=O)s3)c2cc1OC [GW869979]	%Inh	%	39
CCC(=O)c1c(-c2ccccc2)c2cc(Cl)ccc2c(=O)n1Cc1ccc(C(=O)O)cc1	%Inh	%	0

response.value for O=C1NC(=O)C(c2ccccc2)=C1Nc1cccc(O)c1 [SB-390534] (field: %Inh) = 0

// sample Cc1nc(N(C)[C@H]2CN(C(=O)CC#N)CC[C@H]2C)c2cc[nH]c2n1 , its %Inh was 13

Summary for this molecule, Nc1nc(N)c2nc(-c3ccccc3)[nH]c2n1 [SKF-12778] : %Inh is 0

---

Test system: BIKE
Construct: gene BMP2K
recordedConditions: concentration: 1 μM, replicates: in singlicate; n = 1
Label class 1 when %Inh < 2%; otherwise class 0.

compound	cat
CCS(=O)c1ccc(-c2coc3ccc(-c4nnc(C)o4)cc23)cc1 (stereo not shown)	class 1
COc1cc2ncn(-c3cc(OCc4ccncc4)c(C(N)=O)s3)c2cc1OC	class 0
COc1ccc(-c2coc3ccc(-c4nnc(SCc5cccc(C#N)c5)o4)cc23)cc1	class 1
COc1cc2ncn(-c3cc(OCCCc4ccccc4)c(C(N)=O)s3)c2cc1OC	class 0
Cc1nnc(-c2ccc(C)c(-c3ccc(C(=O)O)cc3)c2)o1	class 1
CCS(=O)(=O)c1ccc(OC)c(Nc2ncc(-c3ccc(F)cc3)o2)c1.Cl	class 0

Decide: %Inh of COc1ccc(CNC(=O)NC2CCN(c3ccnc(Nc4ccc(F)cc4)n3)C2)cc1 (stereo not shown) strictly below 2%? class 1

Does the reported %Inh of Fc1cccc(CSc2nnc(-c3ccc4c(c3)CCO4)o2)c1 stay below 2%? class 1

Quick check: does COc1cc(Nc2nccc(N3CCC(NC(=O)C(C)c4ccc(Cl)cc4)C3)n2)cc(OC)c1OC (stereo not shown) have %Inh under 2%? class 0

In plain terms, does CN1C(=O)C(Nc2ccccc2)=C(c2ccccc2)C1=O come in under 2% for %Inh? class 1

Just wondering, is %Inh of COc1cc(Nc2nccc(N3CCC(NC(=O)C4COc5ccccc5O4)C3)n2)cc(OC)c1OC (stereo not shown) below 2%? class 0

Lab note: %Inh threshold 2%. Does this compound come in strictly under it? COc1cc2ncn(-c3cc(OCc4ccc(S(C)(=O)=O)cc4)c(C(N)=O)s3)c2cc1OC class 1

Threshold test, %Inh < 2%: Cc1ccccc1COc1cc(-n2cnc3cc(Cl)ccc32)sc1C(N)=O class 0

Quick check: does COc1ccc(-c2cc3c(C)nc(N)nc3n([C@H]3CC[C@H](O)CC3)c2=O)cn1 have %Inh under 2%? class 1

API: query returns whether the compound falls strictly under 2% in %Inh. Query: Cc1ccc(-c2ccc3c(ccc4sc5c(c43)NC[C@@H](C)N=C5N(C)C)n2)cn1 class 1

Lab log: compare recorded %Inh with 2%; is it strictly lower for Nc1ncnc2c1ncn2-c1cccc(F)c1 ? class 1

Is %Inh of C[C@@H]1CC[C@H](C(=O)NC2CCCCC2)CN1c1cc(-c2ccc3c(N)n[nH]c3c2)nc(N)n1 strictly below 2%? class 0
